B1: STK38L (parent)
chain: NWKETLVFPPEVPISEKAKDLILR

variants of: B1; experiment: protein stability index of a GFP-peptide fusion (GPS, HEK-293T) (PSI 1-6); higher = more stable; conditions: c terminus: a fixed tail appended;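 note: lentivirally expressed fusions sorted by FACS into six bins by GFP to DsRed ratio, PSI derived from sequencing read proportions per bin multiplied by bin number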
The threshold is inclusive: protein stability index of exactly 3 counts as YES; values below receive NO.

• NWHETLVFPPEVPISEKAKDLILR [K3H] = YES
• NWKETLVFPPEVPISEKAKDLRLR [I22R] = YES
• NWKETLVFPPELPISEKAKDLILR [V12L] = NO
• NWWETLVFPPEVPISEKAKDLILR [K3W] = NO
• NWKETLVFPPIVPISEKAKDLILR [E11I] = NO
• NWKETLEFPPEVPISEKAKDLILR [V7E] = YES
• NWKETLVFPPEVPISEKAKDLTLR [I22T] = YES
• NWKETLVFPPEVPISEKAKDLILW [R24W] = NO

State whether the measured protein stability index reaches 3, counting equality as reaching it, for YWKETLVFPPEVPISEKAKDLILR [N1Y]
NO

Would you say NWKETLVFPPEVVISEKAKDLILR [P13V] shows protein stability index at minimum 3?
YES
